Measured % Inhibition, listed per entry.
- target_under_test: PAI-1 (Homo sapiens)
- Sequence (P05121 24-402): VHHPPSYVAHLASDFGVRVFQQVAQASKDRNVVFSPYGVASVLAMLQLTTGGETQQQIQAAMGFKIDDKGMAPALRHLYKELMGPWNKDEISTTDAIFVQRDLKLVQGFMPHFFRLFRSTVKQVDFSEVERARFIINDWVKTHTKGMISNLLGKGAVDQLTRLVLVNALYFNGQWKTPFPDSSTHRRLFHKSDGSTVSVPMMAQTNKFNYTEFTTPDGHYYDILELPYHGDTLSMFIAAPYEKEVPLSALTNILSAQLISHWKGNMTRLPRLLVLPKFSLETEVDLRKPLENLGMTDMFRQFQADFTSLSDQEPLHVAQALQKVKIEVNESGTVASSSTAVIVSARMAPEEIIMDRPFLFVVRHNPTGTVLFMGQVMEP
- experimental_details: biochemical
- Assay type: biochemical
- condition_description: 5 μm
Where a name gives a salt, the structure may show the parent alone.
measured_quantity: % Inhibition (%)

{"columns": ["compound", "measurement_units", "observed_result"],
 "data": [
  ["CC(C)/C=c1\\[nH]c(=O)/c(=C/c2ccc(SCCN(C)C)s2)[nH]c1=O [Compound 5448]", "%", 0],
  ["CN(C)CCSc1ccc(/C=c2\\[nH]c(=O)/c(=C/c3ccc(C(C)(C)C)cc3)[nH]c2=O)cc1 [Compound 5440.HCl]", "%", 20],
  ["Cc1ccc(/C=c2\\[nH]c(=O)/c(=C/c3ccc(SCCN(C)C)cc3)[nH]c2=O)cc1 [Compound 5463.HCl]", "%", 78],
  ["CN(C)CCSc1ccc(/C=c2\\[nH]c(=O)/c(=C/c3ccc(OCc4ccccc4)cc3)[nH]c2=O)cc1 [Compound 5481]", "%", 9],
  ["CN(C)CCSc1ccc(/C=c2\\[nH]c(=O)/c(=C/c3cccc(C#N)c3)[nH]c2=O)cc1 [Compound 5476.HCl]", "%", 11],
  ["CN(C)CCSc1ccc(/C=c2\\[nH]c(=O)/c(=C/c3ccccn3)[nH]c2=O)s1 [Compound 5471]", "%", 0],
  ["CN(C)CCSc1ccc(/C=c2\\[nH]c(=O)/c(=C/CC(C)(C)C)[nH]c2=O)s1 [Compound 5502.HCl]", "%", 0],
  ["CN(C)CCSc1ccc(/C=c2\\[nH]c(=O)/c(=C/c3ccc(C#N)cc3)[nH]c2=O)cc1 [Compound 5462]", "%", 41],
  ["CC(C)N(CCSc1ccc(/C=c2\\[nH]c(=O)/c(=C/c3ccccc3)[nH]c2=O)s1)C(C)C [Compound 5399.HCl]", "%", 18],
  ["CN(C)CCSc1ccc(/C=c2\\[nH]c(=O)/c(=C/c3ccc(Cl)cc3)[nH]c2=O)cc1 [Compound 5437.HCl]", "%", 18],
  ["CN(C)CCSc1ccc(/C=c2\\[nH]c(=O)/c(=C/c3ccc(Br)cc3)[nH]c2=O)cc1 [Compound 5480.HCl]", "%", 52],
  ["CN(C)CCSc1ccc(/C=c2\\[nH]c(=O)/c(=C/c3cccc(OCc4ccccc4)c3)[nH]c2=O)cc1 [Compound 5486.HCl]", "%", 4],
  ["COc1cc(/C=c2\\[nH]c(=O)/c(=C/c3ccc(SCCN(C)C)s3)[nH]c2=O)ccc1OCc1ccc([N+](=O)[O-])cc1 [Compound 5488]", "%", 14],
  ["Cc1cccc(/C=c2\\[nH]c(=O)/c(=C/c3ccc(SCCN(C)C)cc3)[nH]c2=O)c1 [Compound 5439]", "%", 5],
  ["CN(C)CCSc1ccc(/C=c2\\[nH]c(=O)/c(=C/c3cccc([N+](=O)[O-])c3)[nH]c2=O)cc1 [Compound 5422]", "%", 3],
  ["CN(C)CCSc1ccc(/C=c2\\[nH]c(=O)/c(=C/c3ccc(Cl)c(Cl)c3)[nH]c2=O)cc1 [Compound 5465.HCl]", "%", 42],
  ["CN(C)CCSc1ccc(/C=c2\\[nH]c(=O)/c(=C/c3cn(C)c4ccccc34)[nH]c2=O)cc1 [Compound 5497.HCl]", "%", 12],
  ["CN(C)CCSc1ccc(/C=c2\\[nH]c(=O)/c(=C/c3ccc(OCc4ccccc4)cc3)[nH]c2=O)s1 [Compound 5482]", "%", 12]
]}
